system: F380Y/beta4; test: modulators of BK channel variants, profiling panel, selectivity assay, cell-based, U2OS BacMam, thallium flux, beta subunits (AID 1259406); details: at 30 µM;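 also: initial slope of Thallos dye fluorescence rise after thallium is added; log ratio against the mean of 0.3% DMSO vehicle wells on the same plate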
Activity calls are given as the source filed them.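 The calls were made as follows: active = thallium flux through the channel raised or lowered by more than 3 SD from vehicle-only wells, actives on both sides; inactive = the rest.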
Select the matching outcome among active, inactive

Please review the entries below; each comes with its answer.
Compound: COC(=O)C[C@](O)(CCCC(C)(C)O)C(=O)O[C@@H]1C(OC)=C[C@]23CCCN2CCc2cc4c(cc2[C@H]13)OCO4
Test system: F380Y/beta4
Category: inactive
//
Compound: NC(=O)c1nnn(-c2ccc([N+](=O)[O-])cc2)c1-c1ccccc1
Test system: F380Y/beta4
Category: inactive
//
Compound: O=c1[nH]nc(N2CCSCC2)[nH]1
Test system: F380Y/beta4
Category: inactive

[ask] Please let me know the test result on file for O=C(CSCc1csc2ccccc12)NCc1ccc2c(c1)OCO2 .
[reply] inactive

[ask] Hi team, can someone confirm the assay call for CC(CCCCC(=O)Nc1ccc(C(F)(F)F)cc1)NCCc1cnc[nH]1 (stereo not given) ?
[reply] inactive

[ask] Please indicate how the test categorized COC(=O)Nc1nc2ccc(C(=O)c3ccc(F)cc3)cc2[nH]1 .
[reply] inactive

[ask] How was Cc1cc(C(=O)ON=C(N)c2ccc([N+](=O)[O-])o2)no1 classified in this test?
[reply] inactive

----------
Recorded inhibition for the following molecules
tested on: Hepatitis C virus NS3 helicase; experiment: HCV NS3 helicase inhibitors, primary screen, biochemical, fluorescence polarization, LOPAC1280 library (AID 687035); details: Purified HCV NS3 helicase, Cy5-dT15 ssDNA binding fluorescence polarization; hits give high values; concentration not given here
Express it in %; write the number only.

Below: 2 molecules and their reported inhibition.
Smiles str: CCN(CC)CCOC(=O)c1cc(Cl)c(N)cc1OC
Test system: Hepatitis C virus NS3 helicase
Value unit: %
inhibition: -6
--
Smiles str: CO/N=C(/C(=O)N[C@@H]1C(=O)N2C(C(=O)O)=C(COC(C)=O)CS[C@H]12)c1csc(N)n1
Test system: Hepatitis C virus NS3 helicase
Value unit: %
inhibition: 6

Now consider the entry below.
[ask] Using the record for Cc1ccc(S(=O)(=O)/C=C/C#N)cc1 , report its inhibition.
[reply] 0

----------
molecular target: L-lactate dehydrogenase (Plasmodium falciparum (isolate CDC / Honduras)) (UniProt Q27743); assay: PfLDH activity inhibition – cell lysate, 3D7 strain, counter-screen for P. falciparum growth inhibition project (AID 2304);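 also: 0% = vehicle and 100% = reference inhibitor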; conditions: P. falciparum 3D7 crude extract, LDH APAD/NBT absorbance; at 2 µM; hits give high values
Sequence (Q27743 whole entry, looked up): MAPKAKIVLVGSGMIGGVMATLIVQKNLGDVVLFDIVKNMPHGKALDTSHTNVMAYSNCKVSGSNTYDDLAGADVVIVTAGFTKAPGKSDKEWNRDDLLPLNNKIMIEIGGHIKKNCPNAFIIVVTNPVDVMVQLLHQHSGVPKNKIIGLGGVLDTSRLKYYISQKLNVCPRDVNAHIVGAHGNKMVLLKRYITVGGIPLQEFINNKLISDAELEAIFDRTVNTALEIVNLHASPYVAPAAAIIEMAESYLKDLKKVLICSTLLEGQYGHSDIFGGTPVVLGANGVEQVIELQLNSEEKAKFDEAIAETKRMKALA
Calls of active or inactive are those of the source. The rule behind the calls is not given here.
Value type: inhibition

Observe how each entry below is paired with its result.
Molecule: Nc1cc(C(F)(F)F)ccc1Cl
Value type: inhibition
Assay result: -1% (inactive)
//
Molecule: CCCCCC(C)NC[C@@H](O)[C@H](Cc1ccccc1)NC(=O)c1cc(NCC)cc(N2CCCCS2(=O)=O)c1 (some centres undefined)
Value type: inhibition
Assay result: 0% (inactive)
//
Molecule: CC(=O)Nc1ccc(C(=O)Nc2cccc(-c3ccc(-c4nc5ccccc5[nH]4)cc3)c2)cn1
Value type: inhibition
Assay result: 0% (inactive)

[ask] Any idea what inhibition was measured for COc1ccc2c(c1)C(C)(CCCN(C)C)C(=O)N2C (centres undefined) ?
[reply] -3% (inactive)

[ask] // query inhibition value for entry COCCN1CCN(Cc2ccc(-c3cccc(-c4nc5ccccc5[nH]4)c3)cc2)CC1
[reply] 0% (inactive)

[ask] Query: inhibition; subject: Cc1c(C(=O)Nc2cc(Sc3ccc(F)cc3)cc([N+](=O)[O-])c2)sc2ncn(Cc3cccc(F)c3)c(=O)c12
[reply] 5% (inactive)
